ASSAY_TARGET: T1, hu-CD74 antigen (R&D SYSTEMS catalog #3590-CD-050) (human, UniProt P04233-2 73-232, limits assumed)
T1 construct: Bought antigen; also called rhCD74; human CD74
T1 sequence (looked up): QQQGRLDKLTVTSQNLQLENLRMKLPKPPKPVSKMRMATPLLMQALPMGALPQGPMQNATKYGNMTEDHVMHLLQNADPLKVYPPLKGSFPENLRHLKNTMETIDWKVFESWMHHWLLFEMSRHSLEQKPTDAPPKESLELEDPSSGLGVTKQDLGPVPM
EXPERIMENT_NOTES: SPR (Biacore T200), IgG captured on anti-human Fc, rhCD74 analyte
MEASUREMENT_LABEL: kon (M⁻¹ s⁻¹)

1. HC 1251_B08 (g)/LC 1337_A10 (g) (antibody, human IgG1, kappa, V domains shown, IgG format) VH: QVQLVESGGGVVQPGRSLRLSCAASGFNFSDYGMHWVRQAPGKGLEWVAVIWYDGSISYYADSVKGRFTISRDNSKNTLYLQMNSLRAEDTAVYYCARGGTVEHGAVYGTDVWGQGTTVTVSS VL: DIQMTQSPSSVSASVGDRVTITCRASQGISSWVAWYQQKPGKAPKLLIYGSSRLQSGVPSRFSGSGSGTDFTLTISSLQPEDFATYYCQQYNTYPLTFGGGTKVEIKR | 392000
2. HC 1251_B08 (wt)/LC 1275_C10 (g) (antibody, human IgG1, kappa, V domains shown, IgG format) VH: QVQLVESGGGVVQPGRSLRLSCAASGFNFSDYGMHWVRQAPDKGLEWVAVIWYDGSISYYADSVKGRFTISRDNSKNTLYLQMNSLRAEDTAVYYCARGGTVEHGAVYGTDVWGQGATVTVSS VL: DIQMTQSPSSVSASVGDRVTITCRASQGVSSWLAWYQQKPGKAPKLLIYSARYLQSGVPSRFSGSGSGTDFTLTISSLQPEDFATYYCQQYNLYPLTFGGGTKVEIKR | 284000
3. HC 1251_B08 (wt)/LC 1337_A09 (wt) (antibody, human IgG1, kappa, V domains shown, IgG format) VH: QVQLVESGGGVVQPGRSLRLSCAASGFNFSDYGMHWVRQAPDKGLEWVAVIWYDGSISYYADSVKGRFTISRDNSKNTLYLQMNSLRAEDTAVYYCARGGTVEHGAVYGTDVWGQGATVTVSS VL: DIQMTQSPSSLSASVGDRVTITCRASQGIGSWLAWYQQKPEKAPKSLIYAADRLQSGVPSRFSGSGSGTDFTLTISSLQPEDFATYYCQQYHTYPLTFGGGTKVEIKR | 1.07e+06
4. HC 1251_B08 (wt)/LC 1337_A07 (g) (antibody, human IgG1, kappa, V domains shown, IgG format) VH: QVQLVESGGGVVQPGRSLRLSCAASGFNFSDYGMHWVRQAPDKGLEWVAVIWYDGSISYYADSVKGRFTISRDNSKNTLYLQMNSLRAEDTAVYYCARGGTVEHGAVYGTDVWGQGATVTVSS VL: DIQMTQSPSSVSASVGDRVTITCRASQGISSWVAWYQQKPGKAPKLLIYGASRLQSGVPSRFSGSGSGTDFTLTISSLQPEDFATYYCQQYHTYPLTFGGGTKVEIKR | 232000
5. HC 1251_B08 (wt)/LC 1337_A07 (wt) (antibody, human IgG1, kappa, V domains shown, IgG format) VH: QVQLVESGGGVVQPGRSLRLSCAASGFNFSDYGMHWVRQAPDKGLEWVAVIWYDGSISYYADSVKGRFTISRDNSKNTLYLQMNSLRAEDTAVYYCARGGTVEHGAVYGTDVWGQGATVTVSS VL: DIQMTQSPSSLSASVGDRVTITCRASQGISSWVAWYQQKPEKAPKSLIYGASRLQSGVPSRFSGSGSGTDFTLTISSLQPEDFATYYCQQYHTYPLTFGGGTKVEIKR | 379000
6. HC 1251_B08 (g)/LC 1275_C10 (wt) (antibody, human IgG1, kappa, V domains shown, IgG format) VH: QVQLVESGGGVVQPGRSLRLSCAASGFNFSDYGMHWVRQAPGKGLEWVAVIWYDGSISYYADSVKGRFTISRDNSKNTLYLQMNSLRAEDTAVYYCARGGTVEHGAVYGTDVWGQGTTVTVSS VL: DIQMTQSPSSLSASVGDRVTITCRASQGVSSWLAWYQQKPEKAPKSLIYSARYLQSGVPSRFSGSGSGTDFTLTISSLQPEDFATYYCQQYNLYPLTFGGGTKVEIKR | 180000
7. HC 1251_B08 (g)/LC 1337_A07 (g) (antibody, human IgG1, kappa, V domains shown, IgG format) VH: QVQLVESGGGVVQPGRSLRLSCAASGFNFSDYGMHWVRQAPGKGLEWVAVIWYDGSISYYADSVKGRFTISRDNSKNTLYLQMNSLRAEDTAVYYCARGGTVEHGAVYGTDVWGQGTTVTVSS VL: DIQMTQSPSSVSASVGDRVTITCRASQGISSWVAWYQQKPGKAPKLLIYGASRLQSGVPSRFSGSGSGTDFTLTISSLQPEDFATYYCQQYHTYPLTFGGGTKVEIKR | 325000
8. HC 1251_B08 (wt)/LC 1337_A10 (g) (antibody, human IgG1, kappa, V domains shown, IgG format) VH: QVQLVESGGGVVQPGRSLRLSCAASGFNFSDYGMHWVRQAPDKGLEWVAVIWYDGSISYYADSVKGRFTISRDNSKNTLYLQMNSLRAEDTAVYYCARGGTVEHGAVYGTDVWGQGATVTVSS VL: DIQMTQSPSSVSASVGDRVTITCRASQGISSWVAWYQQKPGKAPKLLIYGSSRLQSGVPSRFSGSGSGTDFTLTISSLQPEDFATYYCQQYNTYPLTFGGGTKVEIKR | 191000

Source of measurements: patent US20170253656A1
